METRIC_NAME: melting point (°C)

CCON=C(C)c1ccc(OCCCCCOc2c(Cl)cc(OCC=C(Cl)Cl)cc2Cl)cc1 :: 56.1

[1] CC(=NOC(C)(C)C)c1ccc(OCCCCOc2c(Cl)cc(OCC=C(Cl)Cl)cc2Cl)cc1
[2] ClC(Cl)=CCOc1cc(Cl)c(OCCOc2ccc(C=NOCC=C(Br)Br)cc2)c(Cl)c1
Qu. When their melting point values are compared, which is larger, 1 or 2 ? Your answer should be the label of the entry you select.
Ans. 2

[1] N#Cc1ccc(C=NOCCCCOc2c(Cl)cc(OCC=C(Cl)Cl)cc2Cl)cc1
[2] CC(=NO)c1ccc(OCCOc2c(Cl)cc(OCC=C(Cl)Cl)cc2Cl)cc1
Qu. Lower value of melting point belongs to which: 1 or 2 ? Your answer should be the label of the entry you select.
Ans. 1

* * *

Test system: Spodoptera litura
PROTOCOL_SUMMARY: Insecticidal test against Spodoptera litura
Format: in vivo
CONDITION_DESCRIPTION: 144 h, 500 ppm water dilution, 2 ml absorbed in 13 g artificial diet, fourth-instar larvae, after 6 days
Each entry below carries its recorded mortality at 500 µg/mL.

CC(C)(C)ON=CCOc1c(Cl)cc(OCC=C(Cl)Cl)cc1Cl :: ≥ 80%
CC(COCCOCCOc1c(Cl)cc(OCC=C(Cl)Cl)cc1Cl)=NOC(C)(C)C :: ≥ 80%

Qu. API: value(readout= mortality at 500 µg/mL, system= Spodoptera litura, query= `CC(C)(C)ON=CCOCCCCCCOc1c(Cl)cc(OCC=C(Cl)Cl)cc1Cl` )
Ans. ≥ 80%

Qu. API: value(readout= mortality at 500 µg/mL, system= Spodoptera litura, query= CCON=C(C)COc1ccc(OCC=CCl)cc1 [(A), reference compound] )
Ans. 0%

Qu. API: value(readout= mortality at 500 µg/mL, system= Spodoptera litura, query= `CC(C)(C)ON=CCCCCCOc1c(Cl)cc(OCC=C(Cl)Cl)cc1Cl` )
Ans. ≥ 80%

* * *

System: Heliothis virescens
PROTOCOL_SUMMARY: Insecticidal test against Heliothis virescens
Assay type: in vivo
CONDITION_DESCRIPTION: 168 h, 100 ppm water dilution, 0.2 ml on surface of artificial diet, second-instar larvae, after 7 days
METRIC_NAME: mortality at 100 µg/mL

Some solved cases for reference:
CCc1cc(OCC=C(Cl)Cl)cc(CC)c1OCCCCOCC=NOC(C)(C)C :: ≥ 80%
CC(COCCCCCOc1c(Cl)cc(OCC=C(Cl)Cl)cc1Cl)=NOC(C)(C)C :: ≥ 80%
ClC(Cl)=CCOc1cc(Cl)c(OCCCCCOCC=NOCC(Cl)(Cl)Cl)c(Cl)c1 :: ≥ 80%
ClC(Cl)=CCOc1cc(Cl)c(OCCCCOCC=NOCC=C(Br)Br)c(Cl)c1 :: ≥ 80%

Qu. API: value(readout= mortality at 100 µg/mL, system= Heliothis virescens, query= `ClC(Cl)=CCOc1cc(Cl)c(OCCCON=Cc2ccccc2)c(Cl)c1` )
Ans. ≥ 80%

Qu. API: value(readout= mortality at 100 µg/mL, system= Heliothis virescens, query= `ClC(Cl)=CCON=CCCCCCOc1c(Cl)cc(OCC=C(Cl)Cl)cc1Cl` )
Ans. ≥ 80%

Qu. API: value(readout= mortality at 100 µg/mL, system= Heliothis virescens, query= `CC(=NOCCCCCOc1c(Cl)cc(OCC=C(Cl)Cl)cc1Cl)C(C)(C)C` )
Ans. ≥ 80%

Qu. API: value(readout= mortality at 100 µg/mL, system= Heliothis virescens, query= `CCCON=C(C)c1ccc(COc2c(Cl)cc(OCC=C(Cl)Cl)cc2Cl)cc1` )
Ans. ≥ 80%

Qu. API: value(readout= mortality at 100 µg/mL, system= Heliothis virescens, query= `CC(C)(C)ON=CCOCCCCCCOc1c(Cl)cc(OCC=C(Cl)Cl)cc1Cl` )
Ans. ≥ 80%

Qu. API: value(readout= mortality at 100 µg/mL, system= Heliothis virescens, query= `ClC(Cl)=CCOc1cc(Cl)c(OCCCCOCC=NOCc2ccccc2)c(Cl)c1` )
Ans. ≥ 80%

Qu. API: value(readout= mortality at 100 µg/mL, system= Heliothis virescens, query= `CC(COCCCCCOc1c(Cl)cc(OCC=C(Cl)Cl)cc1Cl)=NOCC=C(Cl)Cl` )
Ans. ≥ 80%

Qu. API: value(readout= mortality at 100 µg/mL, system= Heliothis virescens, query= `ClC(Cl)=CCON=CCOCCCOc1c(Cl)cc(OCC=C(Cl)Cl)cc1Cl` )
Ans. ≥ 80%

Qu. API: value(readout= mortality at 100 µg/mL, system= Heliothis virescens, query= `CC(C)(C)ON=CCCCCCOc1c(Cl)cc(OCC=C(Cl)Cl)cc1Cl` )
Ans. ≥ 80%

Qu. API: value(readout= mortality at 100 µg/mL, system= Heliothis virescens, query= `CC(C)(C)ON=CCOCCCOc1c(Cl)cc(OCC=C(Cl)Cl)cc1Cl` )
Ans. ≥ 80%

Qu. API: value(readout= mortality at 100 µg/mL, system= Heliothis virescens, query= `ClC(Cl)=CCON=CCOCCCCCCOc1c(Cl)cc(OCC=C(Cl)Cl)cc1Cl` )
Ans. ≥ 80%
